Test system: FXR:RXRa (NR concentration 270 nM, RXRa partner concentration 90 nM)
Protocol text: PBM binding z-score (relative to random genomic background probes); higher = stronger binding; sequences stand for … in GC…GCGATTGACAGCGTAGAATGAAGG
PBM binding z-score values for the sequences below.
Measurement name: PBM binding z-score

{"columns": ["Monomer sequence", "Val"],
 "data": [
  ["ATATGTAGGTTATTGGGTCATTCAGTTTGCGCAT", 2.82],
  ["GGAACGAGGGCAAAGTTGATGGCATCTGTCGACG", 1.36],
  ["GCTGCTAGGTCAGGTTGGTCAGTTAACGGGTACG", 1.25],
  ["CTCGAAAGGTCGTGCTCAGGTGAATATACCAAAC", 5.33],
  ["ATCTCTAGGTAAGACTCAGTTAAGTGAAGAACGC", 0.573],
  ["TGAATGAGGTTAAAGATCATGGAACGTGGCGTCG", 3.15],
  ["AATATAGGGTCACTAGGCCAGAGTAGGTACGAAT", 6.26],
  ["CGAACTAGGTCATCCAGGACAGTTAATACATTGA", 4.18],
  ["ATCTCTAGGTAAAAGTTCAGGGAATCCCGAGGAT", 1.28],
  ["CAAACTAGGTCAAGGTCAGAGTCGGTTTGTGCCA", 5.93],
  ["TCTAGTTGGTCAAAGGACACACACTCGAAATGCG", 1.06],
  ["TCTTGTAGATCAATAGAGGCTAAGAAAGTGCGCT", 0.509]
]}

###

System: PPARg:RXRa 30nM:10nM, anti-RXR (NR concentration 30 nM, RXRa partner concentration 10 nM)
Protocol text: PBM binding z-score (relative to random genomic background probes); higher = stronger binding; sequences stand for … in GC…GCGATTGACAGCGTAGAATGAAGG
Outcome label depends on PBM binding z-score relative to 2: at/above gives TRUE, below gives FALSE.

{"columns": ["Monomer sequence", "Discrete label"],
 "data": [
  ["TAGCCGAGGTCATTGGGCCAGTATAGTACGCATC", "TRUE"],
  ["CGTCCAAGGTCATAGGAAGTCAGTGAAGACAGAT", "FALSE"],
  ["CCTAGCAGTCCAGGGTCACTCAAGCATTTCGCTT", "FALSE"],
  ["CTCGAAAGGTCGTGCTCGGGTGAGTATACCAAAC", "FALSE"],
  ["ATCTCTAGGTAAAAGGTCAGTGAATCCCGAGGAT", "TRUE"],
  ["CCAGACAGGTGAGAAGGTTACTCAGCCTCGATTA", "FALSE"],
  ["TGAGTGAGGTTATAAGATCAGGGAACGTTGCAAA", "FALSE"],
  ["TCACATAGGTAATACAGGTGAAAGTCGGCATCTA", "TRUE"],
  ["CCAACTGGGCCATTCAGAGGTCATTGATCATATG", "FALSE"],
  ["CTCGAAAGGTAGGTTGAGGTGAGTATACGGATAA", "FALSE"],
  ["CCTTACGGGTCAATGACAGGTTATAGCATTTGGA", "FALSE"],
  ["TCTGCTAGGTCATTTGGTCAGCTAACGAGCTGCC", "FALSE"],
  ["CCTACAGGGCCATTCAGAGGTCATTGATCATATG", "FALSE"],
  ["CAAATTAGGTCACAGAGGTCAAAGTCCGTGCGTA", "TRUE"],
  ["CATACAGGGTCAGCTTGGCCAGAGTAGGGACGGC", "FALSE"],
  ["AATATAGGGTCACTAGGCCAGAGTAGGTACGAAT", "TRUE"],
  ["TTACCAAGGTGAAAGTTCGTTGATGCACGCCTTG", "TRUE"],
  ["ATCTCTAGGTAAAGTTCAGTGCAAGATCGATAGA", "TRUE"],
  ["GGAACGAAGGCAAGTTGATAGCAGAGTTTGATGG", "FALSE"],
  ["AGAACGAGGGCAATGAGTTGGTAGCACGGGTGGC", "FALSE"],
  ["GGAACGAGGGCAAACTTGATAGCATCTGTCGACG", "FALSE"],
  ["GCTTCTAGATCAAGGTTAAGAAAGACTAAGCTAA", "FALSE"],
  ["TCGAGTAGGTTAGGCGCATTCAGAATGGCGTCGA", "FALSE"],
  ["ACTATTAATTGACTTAGGGCAACCGATACGACGC", "FALSE"],
  ["CGGCAAAGTTCAAGGTAACGTAACAGAAAGCAGC", "FALSE"]
]}

The reported measurements were obtained from the supplement of paper PMC6555819.
